system: LOX IMVI melanoma; assay: NCI tumour cell line growth inhibition, 48 h
observation_type: TGI

| compound | TGI |
| --- | --- |
| COc1cc(/C=C\c2cc(/C=C\c3ccc(O)c(OC)c3)n(C(=O)CNc3ccc(Cl)cc3)n2)ccc1O | 6.95 µM |
| COc1cc(CC(C(=O)O)C(=O)O)c(OC)cc1CC(C(=O)O)C(=O)O | > 100 µM |
| C[C@@H]1CC[C@@H]2[C@@H](C)C[C@H]3[C@@H]4C(C)(C)OC(=O)[C@]4(C)C(=O)[C@@]23C1=O | > 100 µM |
| CC1CC(C)C2=NOS3=C2C1=NO3 (stereo not drawn) | > 100 µM |

Entry [O-][n+]1c(-c2ccccc2)c2nc3ccccc3nc2c2ccccc21 ; TGI = > 100 µM

Entry N#CCCN(CCC#N)c1ccc(/C=C2\N=C(c3cc([N+](=O)[O-])ccc3Cl)N(NC(=O)CC(=O)Nc3ccccc3Cl)C2=O)cc1 ; TGI = > 100 µM

Entry COc1ccc2c(c1)N(CCO)C1=C(C(=O)OC1)C2c1ccccc1 (stereo not drawn) ; TGI = > 50 µM

Entry C=C1C(=O)OC2C1C(OC(=O)/C(C)=C\C)CC1(CO1)C1C(O)C=C(C)C21O (stereo not drawn) ; TGI = 30.6 µM
